# TGI annotations
Test system: SNB-75 CNS
TEST SUMMARY: NCI tumour cell line growth inhibition, 48 h

COc1ccc2nc(N/N=C/c3ccc(C)s3)cc(C)c2c1	46.4 µM
O=C([O-])c1ccccc1Nc1ccccc1C(=O)[O-].[OH3+].[Zn+2]	37.2 µM
C[C@@H](c1ccccc1)N1C[C@@H](c2ccc3c(c2)OCO3)[C@@H]2C(=O)CCC[C@@H]21	> 100 µM

Entry under review: `Cc1nc(-c2cccnc2)sc1C(=O)CC(=O)C(=O)Nc1cccc(NC(=O)C(=O)CC(=O)c2sc(-c3cccnc3)nc2C)n1` . Reported TGI? > 100 µM

Recorded TGI of COc1ccc(CC2Cc3ccccc3CC(=O)N2)cc1OC (stereo not given) , please. > 100 µM

* * *

Listing of recorded TGI by entry.
System: NCI-H460 lung
TEST SUMMARY: NCI tumour cell line growth inhibition, 48 h

The examples below pair each entry with its known result.
O=C1/C(=C/c2ccc(Cl)cc2)N=C(c2ccccc2)N1c1cc(C(F)(F)F)ccc1Cl	61.7 µM
Cn1cc(-c2ncnc3ccc(-c4cnc(Cl)c(NS(C)(=O)=O)c4)cc23)c2ccccc21	> 100 µM
COC1CC(O[C@H]2CC[C@@]3(C)C(=CCC4(O)C3CCC35C(=O)OC6(C)O[C@@]43CCC65)C2)OC(C)C1O (some centres undefined)	> 100 µM
COc1cccc(C2SC(C)C(=O)N2NC(=O)C(O)c2ccccc2)c1 (centres undefined)	> 100 µM
COc1cc(/C=C/C(=O)c2ccccc2O)ccc1OCCCOc1cc2c(cc1OC)C(=O)N1CCC[C@H]1C=N2	11.1 µM
Cc1ccc2c(ccc3ncc(CNc4ccc(NS(C)(=O)=O)cc4)c32)[nH]1	35.4 µM
COC(Cc1cc(C(O)(c2ccc(C(C)(C)C)cc2)c2cc(CC(OC)(c3cc(C(OC)(c4ccc(C(C)(C)C)cc4)c4ccc(C(C)(C)C)cc4)c(C)cc3C)c3cc(C(OC)(c4ccc(C(C)(C)C)cc4)c4ccc(C(C)(C)C)cc4)c(C)cc3C)c(C)cc2C)c(C)cc1C)(c1cc(C(OC)(c2ccc(C(C)(C)C)cc2)c2ccc(C(C)(C)C)cc2)c(C)cc1C)c1cc(C(OC)(c2ccc(C(C)(C)C)cc2)c2ccc(C(C)(C)C)cc2)c(C)cc1C	> 75 µM
C#Cc1cccc(Nc2nc(C)nc3cc(NC(=O)CCl)ccc23)c1	7.19 µM
Cc1cc2c3c(nc2c2cc[nH]c(C)c12)CCCC3	4.27 µM
CC(C)(C)OC(=O)NCC(c1c[nH]c2cc(Br)ccc12)c1c[nH]c2cc(Br)ccc12	48.7 µM

Returns the measured TGI for the input compound. Input: `CC(=O)OC(OC(C)=O)c1c2ccccc2cc2ccccc12` 31.8 µM

# query: TGI of entry `CCCC[n+]1ccn(-c2nc3ccccc3n2C)c1` > 100 µM

So what's the measured TGI for this one? `O=S(=O)(O)c1ccc(N=Nc2ccc(N=Nc3c(O)ccc4ccc(S(=O)(=O)O)cc34)cc2)cc1` > 100 µM

Give the measured TGI of CS(=O)(=O)c1ccc(C(=O)O[C@@H]2C(=O)N3CC[C@H]4OC(O)[C@@H]2[C@H]43)cc1 (some centres undefined) . > 100 µM

Quick check: TGI of `COc1nc2c(c(=O)n1C)CN(c1ccccc1)C(=O)CN2C` ? > 100 µM

Record request: TGI value, item `CC(=O)N(N=O)c1ccc(N(N=O)C(C)=O)cc1` > 100 µM

Would you mind telling me what TGI value was observed for CC[C@@]1(O)C(=O)OCc2c1cc1n(c2=O)Cc2c-1nc1ccccc1c2/C=N\NC(=O)C(N)Cc1ccc(O)cc1 (some centres undefined) ? 10.8 µM

Fill in the blank: the reported TGI of OCC1CC2C=CCC(C2)C1 (centres undefined) is ____. > 100 µM

* * *

Entries and their measured TGI follow.
Tested on: SW-620 colon
TEST SUMMARY: NCI tumour cell line growth inhibition, 48 h

Given the entry `O=C(O)c1nn(-c2ccc(Cl)cc2)c2c1C(=O)c1ccccc1C2=O` , report its measured TGI. > 100 µM

* * *

Test system: HCT-15 colon
TEST SUMMARY: NCI tumour cell line growth inhibition, 48 h
Entries and their measured TGI follow.

Some molecules with known TGI results, for comparison:
CC1=C(C(=O)O)N2C(=O)[C@@H](NC(=O)C(c3ccccc3)N3CSC(=S)N(C(C)C)C3)C2SC1 (stereo not given in full)	> 100 µM
Cc1ccc([N+](=O)[O-])cc1NC(=O)C(=O)Cc1nc2ccc(C(=O)c3ccccc3)cc2[nH]c1=O	> 100 µM
C=CCN=C1NC(=O)C(CC(=O)Nc2cccc(Cl)c2)S1 (stereo not given)	> 100 µM
O=C1NCN(c2ccccc2)C12CCN(CCCN1CCN(CCOC(c3ccccc3)c3ccccc3)CC1)CC2	5.19 µM
Cc1cc(-c2nc3ccc(F)cc3s2)ccc1NC(=O)C(N)CCCCN (stereo not given)	23.6 µM
C=C(C)[C@@H]1C/C=C(/COC(C)=O)CC[C@H]2O[C@@]2(C)CC/C=C(\C)CC1	> 100 µM
COC(=O)CCCCCOS(=O)(=O)c1ccc(C)cc1	> 100 µM
C/C(=N\NC(=O)c1ccccc1O)c1c(O)cc(C)oc1=O	> 100 µM
COC(=O)c1ccc(Oc2nc3ccc(C(F)(F)F)cc3nc2-c2ccccc2)cc1	> 100 µM
O=S(=O)(O)c1ccc(N=Nc2ccc(N=Nc3c(O)ccc4ccc(S(=O)(=O)O)cc34)cc2)cc1	> 100 µM

Which TGI is listed for `CCSC1=N/C(=C\c2ccco2)C(Nc2ccc(C)cc2)=N1` ? > 100 µM

Can you look up the measured TGI of `C/C(COc1ccc2oc(-c3ccccc3)cc(=O)c2c1)=N\O` for me? > 100 µM

If you can, please state the reported TGI value of CC1CN=C(N(C(=O)Nc2ccc(Cl)cc2)c2cccc(Cl)c2)S1 (stereo not given) . > 100 µM

TGI lookup needed for `O=C1C=CC(=O)c2c(O)c(NCCN3CCOCC3)c(Cl)c(O)c21` , thanks. 3.87 µM

Returns the measured TGI for the input molecule. Input: `CC(=O)/C(=C/N1CC(=O)NC1=S)C(=O)Nc1ccccc1C` > 100 µM

* * *

Reported TGI by item:
Tested on: MDA-MB-435
TEST SUMMARY: NCI tumour cell line growth inhibition, 48 h

Worked cases, answers included:
CN1CCN(c2ccncc2S(=O)(=O)N2CCN(C)CC2)CC1	> 100 µM
CCCNC(=O)Cn1c2c(c3ccccc31)CCCC2	> 100 µM

Read the next record carefully.
Report TGI for `FC(F)(F)c1cccc(Oc2ccc(Nc3ncnc4ccc(OCCCN5CCOCC5)cc34)cc2Cl)c1` please. 3.39 µM

* * *

Tested on: HT29 colon
TEST SUMMARY: NCI tumour cell line growth inhibition, 48 h
ENDPOINT: log10(TGI) (log10 of the value in µM)
// do not treat as linear: log10 of TGI, unit µM

These solved cases illustrate the format of a correct answer.
COc1ccc(-c2oc3ncnc(N)c3c2-c2ccc(NC(=O)Nc3cc(C(F)(F)F)ccc3F)cc2)cc1	0.49
C#Cc1cccc(Nc2nc(C)nc3cc(NC(=O)CCl)ccc23)c1	0.62
C=C[C@@H]1CCC/C=C/[C@@H]2C[C@H](O)C[C@H]2[C@H](O)/C=C/C(=O)O1	0.20
Oc1c(CN2CCCCC2)ccc2cccnc12	1.29

Look at this molecule and give its reported log10(TGI). `O=CC1=CCCN(CCc2c[nH]c3ccccc23)C1` 2.06

If you can, please state the reported log10(TGI) value of `O=C1NCN(c2ccccc2)C12CCN(CCCN1CCN(CCOC(c3ccccc3)c3ccccc3)CC1)CC2` . 0.63

Value lookup for log10(TGI); key = `Cc1c(C)c(S(=O)(=O)N(CCCN)OCCCN)c(C)c2c1OC(C)(C)CC2` 1.45

Could you tell me which log10(TGI) is on file for `N/C(=C\c1ccc(/C=C(\NC(=O)c2ccccc2)c2nc3c([nH]2)C(=O)c2ccccc2C3=O)cc1)c1nc2c([nH]1)C(=O)c1ccccc1C2=O` ? 1.51

For the molecule `C[C@]12CC[C@@H]3c4ccc(O)cc4CC[C@H]3[C@@H]1CC(Cc1ccccc1)(Cc1ccccc1)C2=O` , what log10(TGI) is on record? 1.31

* * *

System: SF-295 CNS
TEST SUMMARY: NCI tumour cell line growth inhibition, 48 h
Where a SMILES comes first, the peptide text is derived from it.
Reported TGI is given for each of the following compounds.

Recorded results for 5 compounds are shown here.
CO[C@H]1/C=C/O[C@@]2(C)Oc3c(C)c(O)c4c(O)c(c(/C=N/N5C(C)CN(Cc6ccc(C#N)cc6)CC5C)c(O)c4c3C2=O)NC(=O)/C(C)=C\C=C\[C@H](C)[C@H](O)[C@@H](C)[C@@H](O)[C@@H](C)[C@H](OC(C)=O)[C@@H]1C (some centres undefined)	12.2 µM
COc1cccc(/C=C2\N=C(Cl)OC2=O)c1O	> 100 µM
Cc1ccc(NC(=O)C(=O)C2C(=O)NC(=O)NC2=O)c(C)c1	> 100 µM
COc1ccc(/C(=N/OCCCC(=O)O)c2cccs2)cc1	> 100 µM
[N-]=[N+]=C1C(=O)C2CC3CC1CC2C3 (centres undefined)	> 100 µM

For CC(=O)NC(CS)C(=O)NC(CO)C(=O)NC(CO)C(=O)NC(Cc1c[nH]c2ccccc12)C(=O)N1CCCC1C(=O)NC(CO)C(=O)NC(Cc1c[nH]c2ccccc12)C(=O)NC(Cc1c[nH]cn1)C(=O)NC(CO)C(=O)NC(Cc1c[nH]c2ccccc12)C(=O)NCC(=O)NCC(=O)NC(C)C(=O)NC(CCC(N)=O)C(=O)NC(CCCCN)C(=O)NC(C)C(=O)NC(CCCNC(=N)N)C(=O)NC(CCCCN)C(N)=O (centres undefined) (Ac-CSSWPSWHSWGGAQKARK-NH2; configuration not given here) , what is its reported TGI? > 50 µM

# TGI lookup, item `CCCCCCCC(=O)Nc1nc2[nH]c(CN3CCN(Cc4cccc(I)c4)CC3)c(CN3CCN(Cc4cccc(I)c4)CC3)c2c(=O)[nH]1` 1.55 µM

Look up TGI for this compound: `Cn1c2ccccc2c2c3c(c4c5ccccc5n(C)c4c21)C(=O)N(Cc1ccccc1)C3=O` > 100 µM

For the compound `CC(=O)OCCCCn1nncc1Cn1ccc(=O)n(Cc2cnnn2CCCCOC(C)=O)c1=O` , what TGI is on record? > 100 µM

TGI lookup needed for `CCCC(=O)Oc1ccc(/C=N/NC(N)=S)nc1` , thanks. > 100 µM

// query TGI value for entry `COC(=O)c1ccc(Oc2nc3ccc(C(F)(F)F)cc3nc2-c2ccccc2)cc1` > 100 µM

GET /values?readout=TGI&item= `COC(=O)Cc1cccc2c(=O)c(S(=O)(=O)NC(=O)Nc3ccc(Cl)cc3)c(-c3ccccc3)oc12` > 100 µM

# get_value(readout='TGI', item= C=CCN=C1NC(=O)C(CC(=O)Nc2cccc(Cl)c2)S1 (centres undefined) ) > 100 µM

Item under review: O=C1C2CCCC2N1Cc1ccccc1 (centres undefined) . Reported TGI? > 100 µM
